These measurements were taken from paper PMC6364417.

Test system: NHDF (normal human dermal fibroblasts)
protocol description: Dose-response curves and IC50 in non-cancer cells, cell viability, 72 h
measurement context: fibroblasts (NHDF)
readout name: effect on healthy cells, cell viability (in words)

compound	value reported
C=CCn1c(=O)c2cnc(Nc3ccc(N4CCN(C)CC4)cc3)nc2n1-c1cccc(C(C)(C)O)n1 [MK-1775, reference compound]	very modest effects
CC(C)(C)c1nc(-c2cccc(NS(=O)(=O)c3c(F)cccc3F)c2F)c(-c2ccnc(N)n2)s1	did not have any effect
CCCS(=O)(=O)Nc1ccc(F)c(C(=O)c2c[nH]c3ncc(-c4ccc(Cl)cc4)cc23)c1F	did not have any effect
NC(=O)Nc1cc(-c2cccc(F)c2)sc1C(=O)N[C@H]1CCCNC1	very modest effects
